Assay: Partition coefficient octanol/buffer pH 7.4 (lg P)
Format: physicochemical
Details: pH 7, Konfig. ax, Octanol/Puffer, pH 7,4, read-out: lg P
observation.type: logD

Reported logD of Nc1ncnc2c1nc(Br)n2[C@@H]1O[C@@H]2COP(=O)(OCc3ccccc3)O[C@H]2[C@H]1O (stereo partly shown) [Verbindung 1] : 1.61

Form: molecule = Nc1ncnc2c1nc([Se]Cc1ccccc1)n2[C@@H]1O[C@@H]2COP(=O)(OCc3ccccc3)O[C@H]2[C@H]1O (stereo partly shown) [Verbindung 4] ; logD = 1.7

Briefly, logD measured for Nc1ncnc2c1nc(SCc1ccccc1)n2[C@@H]1O[C@@H]2COP(=O)(OCc3ccccc3)O[C@H]2[C@H]1O (stereo partly shown) [Verbindung 3] : 1.96

Lab book: logD of CSc1nc2c(N)ncnc2n1[C@@H]1O[C@@H]2COP(=O)(OCc3ccccc3)O[C@H]2[C@H]1O (stereo partly shown) [Verbindung 2] noted as 1.55

* * *

Test system: Trachealspangen-Kette des Meerschweinchens
Experiment: Relaxation of spontaneously contracted tracheal ring chain in vitro, relative to (-)isoprenaline maximum
Format: cell-based, Meerschweinchen
Conditions: Cavia porcellus; Dosis der halbmaximal möglichen Relaxation; Relaxation relative to (-)Isoprenalin 10^-6 Mol/l; read-out: ED50 (the source's name)
observation.type: EC50 (µM)
Express the result in µM but write the number alone.

Looking up Cn1c(=O)c2[nH]cnc2n(C)c1=O [Theophyllin, reference compound] , I see its EC50 listed as 130

Entry under test: Nc1ncnc2c1nc(Sc1ccc(Cl)cc1)n2[C@@H]1O[C@@H]2COP(=O)(OCc3ccccc3)O[C@H]2[C@H]1O (stereo partly drawn) . Its EC50 was 38

The molecule listed as Nc1ncnc2c1nc(Br)n2[C@@H]1O[C@@H]2COP(=O)(OCc3ccccc3)O[C@H]2[C@H]1O (stereo partly drawn) shows EC50 equal to 7

* * *

Test: Partition coefficient octanol/buffer pH 7.4 (lg P)
Format: physicochemical
Details: pH 7, Konfig. äq, Octanol/Puffer, pH 7,4, read-out: lg P
For each record, write down the corresponding logD.
Just the number, please, no unit after it.

Please fill in: logD reported for Nc1ncnc2c1nc([Se]Cc1ccccc1)n2[C@@H]1O[C@@H]2COP(=O)(OCc3ccccc3)O[C@H]2[C@H]1O (stereo partly shown) [Verbindung 4] = 1.64

Recorded result, Nc1ncnc2c1nc(Br)n2[C@@H]1O[C@@H]2COP(=O)(OCc3ccccc3)O[C@H]2[C@H]1O (stereo partly shown) [Verbindung 1] , logD: 1.54

In plain terms, CSc1nc2c(N)ncnc2n1[C@@H]1O[C@@H]2COP(=O)(OCc3ccccc3)O[C@H]2[C@H]1O (stereo partly shown) [Verbindung 2] has a documented logD of 1.7

Entry Nc1ncnc2c1nc(SCc1ccccc1)n2[C@@H]1O[C@@H]2COP(=O)(OCc3ccccc3)O[C@H]2[C@H]1O (stereo partly shown) [Verbindung 3] ; logD = 1.88

* * *

Test system: Papillarmuskeln aus dem rechten Ventrikel des Meerschweinchenherzens
Test: Positive inotropic effect on isolated papillary muscle, isometric force, with or without phosphodiesterase inhibitor
Type: cell-based, Meerschweinchen
Settings: 50 % der maximalen Kraftzunahme; ohne IBMX; read-out: EC50
observation.type: EC50 (µM)
# unit: µM | format: bare number

The reported EC50 of the molecule Nc1ncnc2c1nc(SCc1ccccc1)n2[C@@H]1O[C@@H]2COP(=O)(OCc3ccccc3)O[C@H]2[C@H]1O (stereo partly shown) was 20

Quick note, EC50 for Nc1ncnc2c1nc(NCc1ccccc1)n2[C@@H]1O[C@@H]2COP(=O)(OCc3ccccc3)O[C@H]2[C@H]1O (stereo partly shown) landed at 40

The recorded EC50 for Nc1ncnc2c1ncn2[C@@H]1O[C@@H]2COP(=O)(OCc3ccccc3)O[C@H]2[C@H]1O (stereo partly shown) [compound 3, Adenosin-3',5'-phosphorsäurebenzylester, reference compound] is 250

The molecule Nc1ncnc2c1nc(Br)n2[C@@H]1O[C@@H]2COP(=O)(OCc3ccccc3)O[C@H]2[C@H]1O (stereo partly shown) showed EC50 equal to 10

* * *

Tested on: Papillarmuskeln aus dem rechten Ventrikel des Meerschweinchenherzens
Test: Positive inotropic effect on isolated papillary muscle, isometric force, with or without phosphodiesterase inhibitor
Type: cell-based, Meerschweinchen
observation.type: EC50
Please state the number and follow it with the unit.

// CSc1nc2c(N)ncnc2n1[C@@H]1O[C@@H]2COP(=O)(OCc3ccccc3)O[C@H]2[C@H]1O (some centres unmarked) : EC50 value = 10 µM

Kindly note the recorded EC50 for Nc1ncnc2c1nc([Se]Cc1ccccc1)n2[C@@H]1O[C@@H]2COP(=O)(OCc3ccccc3)O[C@H]2[C@H]1O (some centres unmarked) , which is 10 µM

* * *

Experiment: Partition coefficient octanol/buffer pH 7.4 (lg P)
Type: physicochemical
Settings: pH 7, Vergleichsverbindungen, Octanol/Puffer, pH 7,4, read-out: lg P - Werte
Excerpt: Weitere physikalische Daten finden sich in der folgenden Tabelle I, die auch zusätzliche beispielhaft hergestellte erfindungsgemäße Verbindungen und deren physikalische Daten enthält. Dabei bedeutet P den Verteilungskoeffizienten Octanol/Puffer, pH 7,4: P = [formula]
observation.type: logD
Lab note: record the figure alone, no unit after it.

logD reading for Nc1ncnc2c1ncn2[C@@H]1O[C@@H]2COP(=O)(OCc3ccccc3)O[C@H]2[C@H]1O (stereo partly drawn) [compound 3, Adenosin-3',5'-phosphorsäurebenzylester, reference compound] : 1.1

Input Nc1ncnc2c1nc(SCc1ccccc1)n2[C@@H]1O[C@@H]2COP(=O)(O)O[C@H]2[C@H]1O [compound 2, 8-Benzylthioadenosin-3',5'-phosphorsäure, reference compound] . Output logD: -1.15

Note to self: logD recorded for CCCC(=O)Nc1ncnc2c1ncn2[C@@H]1O[C@@H]2COP(=O)(O)O[C@H]2[C@H]1OC(=O)CCC [Vergleichs-verbindung 1, Dibutyryl-cAMP, reference compound] was -1.1

* * *

Tested on: Papillarmuskeln aus dem rechten Ventrikel des Meerschweinchenherzens
Experiment: Positive inotropic effect on isolated papillary muscle, isometric force, with or without phosphodiesterase inhibitor
Type: cell-based, Meerschweinchen
Conditions: 50 % der maximalen Kraftzunahme; ohne IBMX; read-out: EC50
observation.type: EC50

Per the record, Nc1ncnc2c1nc(SCc1ccccc1)n2[C@@H]1O[C@@H]2COP(=O)(O)O[C@H]2[C@H]1O [compound 2, 8-Benzylthioadenosin-3',5'-phosphorsäure, reference compound] has EC50 of 800 µM

Input CCCC(=O)Nc1ncnc2c1ncn2[C@@H]1O[C@@H]2COP(=O)(O)O[C@H]2[C@H]1OC(=O)CCC [Vergleichs-verbindung 1, Dibutyryl-cAMP, reference compound] . Output EC50: 1000 µM

According to the records, this compound Nc1ncnc2c1nc(Sc1ccc(Cl)cc1)n2[C@@H]1O[C@@H]2COP(=O)(OCc3ccccc3)O[C@H]2[C@H]1O (stereo partly drawn) displays EC50 of 2 µM
